Molecular target: FGFR3 (Homo sapiens, UniProt P22607)
Construct: made in house; host or cells: E. coli (BL21-derived), T7 phage
Sequence (P22607 23-806): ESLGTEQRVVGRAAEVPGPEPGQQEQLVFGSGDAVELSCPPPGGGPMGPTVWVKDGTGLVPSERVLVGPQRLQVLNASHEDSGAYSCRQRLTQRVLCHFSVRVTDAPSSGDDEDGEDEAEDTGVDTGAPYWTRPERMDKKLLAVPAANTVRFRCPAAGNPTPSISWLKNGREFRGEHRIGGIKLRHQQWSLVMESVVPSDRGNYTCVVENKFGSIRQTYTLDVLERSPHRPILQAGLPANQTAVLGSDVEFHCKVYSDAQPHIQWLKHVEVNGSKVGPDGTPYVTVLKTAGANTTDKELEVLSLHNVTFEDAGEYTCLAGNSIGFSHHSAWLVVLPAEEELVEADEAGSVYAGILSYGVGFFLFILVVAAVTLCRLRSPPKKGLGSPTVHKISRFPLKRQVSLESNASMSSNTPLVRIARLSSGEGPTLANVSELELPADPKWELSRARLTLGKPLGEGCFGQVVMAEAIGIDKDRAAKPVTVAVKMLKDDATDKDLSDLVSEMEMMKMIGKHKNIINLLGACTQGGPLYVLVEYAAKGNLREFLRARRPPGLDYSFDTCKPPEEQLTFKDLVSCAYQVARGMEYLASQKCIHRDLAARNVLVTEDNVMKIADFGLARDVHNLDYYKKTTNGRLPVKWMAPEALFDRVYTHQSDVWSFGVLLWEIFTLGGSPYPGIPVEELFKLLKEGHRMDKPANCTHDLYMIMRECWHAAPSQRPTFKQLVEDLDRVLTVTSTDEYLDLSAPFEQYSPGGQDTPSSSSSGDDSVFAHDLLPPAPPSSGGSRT
Test: Kinase binding assay (kinase-tagged T7 phage, affinity beads, qPCR), Kd
Details: read-out: FGFR3 (Kd nM)

molecule | assayed_target | Kd
C[C@@H](Oc1ccc2[nH]nc(-c3cnc(N4CC(C)(N5CCOCC5)C4)c(C#N)c3)c2c1)c1c(Cl)cncc1Cl [Example 34] | FGFR3 (Homo sapiens, UniProt P22607) | 1 to 50 nM
CCC1(N)CN(c2ccc(-c3n[nH]c4ccc(O[C@H](C)c5c(Cl)cncc5Cl)cc34)nn2)C1 [Example 299] | FGFR3 (Homo sapiens, UniProt P22607) | 1 to 50 nM
CC[C@@H](C)NC1(C)CN(c2ccc(-c3n[nH]c4ccc(O[C@H](C)c5c(Cl)cncc5Cl)cc34)cn2)C1 [Example 225] | FGFR3 (Homo sapiens, UniProt P22607) | 1 to 50 nM
COc1cc2[nH]nc(-c3cnc(N4CC(N)(C(C)C)C4)c(C#N)c3)c2cc1O[C@H](C)c1c(Cl)cncc1Cl [Example 353] | FGFR3 (Homo sapiens, UniProt P22607) | 1 to 50 nM

---

Target: FGFR3 (V555M) (Homo sapiens, UniProt P22607, V555M)
Construct: made in house; host or cells: E. coli (BL21-derived), T7 phage
Sequence (P22607 23-806 V555M): as the sequence (P22607 23-806) above, with V533M counted along it
Assay: Kinase binding assay (kinase-tagged T7 phage, affinity beads, qPCR), Kd
Conditions: V555M mutant; read-out: FGFR3 (V555M) (Kd nM)

compound_structure_string | Kd
CNC1(C)CN(c2ccc(-c3n[nH]c4ccc(O[C@H](C)c5c(Cl)cnc(C)c5Cl)cc34)cn2)C1 | 1 to 50 nM
Cc1ncc(Cl)c([C@@H](C)Oc2ccc3[nH]nc(-c4ccc(N5CC(C)(NC6COC6)C5)nc4)c3c2)c1Cl | 1 to 50 nM
C[C@@H](Oc1cc2c(-c3cnc(N4CC(C)(NCCO)C4)c(F)c3)n[nH]c2cc1F)c1c(Cl)cncc1Cl | 1 to 50 nM
C[C@H](Oc1ccc2[nH]nc(-c3cnc(N4C[C@H](CS(C)(=O)=O)[C@H]4C)c(F)c3)c2c1)c1c(Cl)cncc1Cl | 50 to 300 nM
CC[C@H](C)NC1(C)CN(c2ccc(-c3n[nH]c4ccc(O[C@H](C)c5c(Cl)cncc5Cl)cc34)cn2)C1 | 1 to 50 nM
C[C@@H](Oc1ccc2[nH]nc(-c3cnc(N4CC(C)(NCC(C)(C)O)C4)c(F)c3)c2c1)c1c(Cl)cncc1Cl | 1 to 50 nM
C[C@@H](Oc1ccc2[nH]nc(-c3cnc(N4CC(C)(N5CCCC5)C4)c(C#N)c3)c2c1F)c1c(Cl)cncc1Cl | 300 to 1000 nM
C[C@@H](Oc1cc2c(-c3cnc(N4CC(C)(N5CCC5)C4)c(C#N)c3)n[nH]c2cc1F)c1c(Cl)cncc1Cl | 1 to 50 nM
C[C@@H](Oc1ccc2[nH]nc(-c3cnc(N4CC(C)(NCC5CC5)C4)c(C#N)c3)c2c1F)c1c(Cl)cncc1Cl | > 1000 nM
C[C@@H]1CN(C2(C)CN(c3ccc(-c4n[nH]c5ccc(O[C@H](C)c6c(Cl)cncc6Cl)cc45)cn3)C2)CCO1 | 1 to 50 nM
COc1cc2[nH]nc(-c3cnc(N4CC(C)(CP(C)(C)=O)C4)c(C#N)c3)c2cc1O[C@H](C)c1c(Cl)cncc1Cl | 1 to 50 nM
C[C@@H](Oc1ccc2[nH]nc(-c3cnc(N4CC(C)(CP(C)(C)=O)C4)c(C#N)c3)c2c1F)c1c(Cl)cncc1Cl | 300 to 1000 nM
C[C@@H](Oc1cc2c(-c3ccc(N4CC(C)(CP(C)(C)=O)C4)nc3)n[nH]c2cc1F)c1c(Cl)cncc1Cl | 1 to 50 nM
CCCNC1(C)CN(c2ncc(-c3n[nH]c4ccc(O[C@H](C)c5c(Cl)cncc5Cl)cc34)cc2F)C1 | 1 to 50 nM

---

This section presents compounds with their documented pIC50 values.
System: KG-1 cell line (FGFR 1-fusion)
Experiment: Cancer cell line cell viability assay (Cell Titer-Glo), 72 hr
Assay type: cell-based
Settings: Homo sapiens, KG-1, KG-1 cell line (FGFR1-fusion)
pIC50: −log10 of the molar value.
endpoint_label: pIC50

compound_structure_string | experimental_value
C[C@@H](Oc1ccc2[nH]nc(-c3cnc(N4CC(CC#N)(N5CCCC5)C4)c(F)c3)c2c1)c1c(Cl)cncc1Cl | 6.70 to 7.30
C[C@@H](Oc1ccc2[nH]nc(-c3cnc(N4CC(N)(CC(C)(C)O)C4)c(F)c3)c2c1)c1c(Cl)cncc1Cl | 6.00 to 6.70
C[C@@H](Oc1ccc2[nH]nc(-c3cnc(N4CC(C)(NCCO)C4)c(F)c3)c2c1)c1c(Cl)cncc1Cl | 7.30 to 10.00
C[C@@H](Oc1ccc2[nH]nc(-c3cnc(N4CC(C)(N5CCCC5)C4)c(C#N)c3)c2c1)c1c(Cl)cncc1Cl | 6.00 to 6.70
COc1cc2[nH]nc(-c3cnc(N4CC(C)(N5CC6CC(C5)O6)C4)c(C#N)c3)c2cc1O[C@H](C)c1c(Cl)cncc1Cl | 6.70 to 7.30
C[C@@H](Oc1cc2c(-c3cnc(N4CC(C)(N5CCCC5)C4)c(F)c3)n[nH]c2cc1F)c1c(Cl)cncc1Cl | 7.30 to 10.00
C[C@@H](Oc1ccc2[nH]nc(-c3cnc(N4CC(N)(Cc5ccnn5C)C4)c(F)c3)c2c1)c1c(Cl)cncc1Cl | 7.30 to 10.00

---

Molecular target: FGFR1 (Homo sapiens, UniProt P11362)
Construct: made in house; host or cells: E. coli (BL21-derived), T7 phage
Sequence (P11362 22-822): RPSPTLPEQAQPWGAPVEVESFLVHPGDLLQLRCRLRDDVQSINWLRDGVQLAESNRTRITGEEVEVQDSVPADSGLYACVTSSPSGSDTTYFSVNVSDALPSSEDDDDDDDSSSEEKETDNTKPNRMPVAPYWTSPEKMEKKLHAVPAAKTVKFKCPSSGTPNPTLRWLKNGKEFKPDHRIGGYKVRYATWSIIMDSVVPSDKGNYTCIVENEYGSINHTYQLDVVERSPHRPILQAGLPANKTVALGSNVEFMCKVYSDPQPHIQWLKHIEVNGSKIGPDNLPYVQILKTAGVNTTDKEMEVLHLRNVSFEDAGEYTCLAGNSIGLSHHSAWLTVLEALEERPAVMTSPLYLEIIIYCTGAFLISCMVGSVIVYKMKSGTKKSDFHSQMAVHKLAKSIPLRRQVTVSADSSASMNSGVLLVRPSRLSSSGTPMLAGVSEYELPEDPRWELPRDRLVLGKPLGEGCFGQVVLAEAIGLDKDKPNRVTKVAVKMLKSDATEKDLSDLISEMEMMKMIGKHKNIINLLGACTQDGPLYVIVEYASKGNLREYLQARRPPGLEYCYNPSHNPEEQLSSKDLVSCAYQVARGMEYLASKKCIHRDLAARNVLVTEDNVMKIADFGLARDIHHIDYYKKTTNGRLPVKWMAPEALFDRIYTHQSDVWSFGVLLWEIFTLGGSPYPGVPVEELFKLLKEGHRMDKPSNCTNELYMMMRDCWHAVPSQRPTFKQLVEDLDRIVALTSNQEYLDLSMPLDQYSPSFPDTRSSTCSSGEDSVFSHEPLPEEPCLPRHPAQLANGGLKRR
Experiment: Kinase binding assay (kinase-tagged T7 phage, affinity beads, qPCR), Kd
Settings: read-out: FGFR1 (Kd nM)
This section presents molecules with their documented Kd values.

compound_structure_string | assayed_target | Kd
Cc1ncc(Cl)c([C@@H](C)Oc2ccc3[nH]nc(-c4cnc(N5CC(C)(CS(C)(=O)=O)C5)c(F)c4)c3c2)c1Cl | FGFR1 (Homo sapiens, UniProt P11362) | 50 to 300 nM
CC(C)NC1(C)CN(c2ncc(-c3n[nH]c4ccc(O[C@H](C)c5c(Cl)cncc5Cl)cc34)cc2F)C1 | FGFR1 (Homo sapiens, UniProt P11362) | 1 to 50 nM
C[C@@H](Oc1ccc2[nH]nc(-c3cnc(N4CC(C)(NCC(C)(C)O)C4)c(F)c3)c2c1)c1c(Cl)cncc1Cl | FGFR1 (Homo sapiens, UniProt P11362) | 1 to 50 nM
CCNC1(C)CN(c2ncc(-c3n[nH]c4ccc(O[C@H](C)c5c(Cl)cncc5Cl)cc34)cc2F)C1 | FGFR1 (Homo sapiens, UniProt P11362) | 1 to 50 nM
C[C@@H](Oc1cc2c(-c3cnc(N4CC(C)(N5CCOCC5)C4)c(C#N)c3)n[nH]c2cc1F)c1c(Cl)cncc1Cl | FGFR1 (Homo sapiens, UniProt P11362) | 50 to 300 nM
C[C@@H](Oc1ccc2[nH]nc(-c3cnc(N4CC(C)(NCP(C)(C)=O)C4)c(F)c3)c2c1)c1c(Cl)cncc1Cl | FGFR1 (Homo sapiens, UniProt P11362) | 1 to 50 nM
COc1cc2[nH]nc(-c3cnc(N4CC(CC#N)(N5CCCC5)C4)c(C#N)c3)c2cc1O[C@H](C)c1c(Cl)cncc1Cl | FGFR1 (Homo sapiens, UniProt P11362) | 1 to 50 nM

---

This section presents compounds with their documented Kd values.
Target: FGFR1 (Homo sapiens)
Construct: made in house; host or cells: E. coli (BL21-derived), T7 phage
Assay: Kinase binding assay (kinase-tagged T7 phage, affinity beads, qPCR), Kd
Details: read-out: FGFR1 (Kd nM)

compound_structure_string | Kd
CC(C)CN(C)C1(C)CN(c2ncc(-c3n[nH]c4ccc(O[C@H](C)c5c(Cl)cncc5Cl)cc34)cc2F)C1 | 50 to 300 nM
C[C@@H](Oc1ccc2[nH]nc(-c3cnc(N4CC(C)(NCC5CC5)C4)c(F)c3)c2c1F)c1c(Cl)cncc1Cl | 300 to 1000 nM
C[C@@H](Oc1ccc2[nH]nc(-c3ccc(N4CC(C)(NCC5CC5)C4)nn3)c2c1)c1c(Cl)cncc1Cl | 1 to 50 nM
COc1cc2[nH]nc(-c3cnc(N4CC(C)(N)C4)nc3)c2cc1O[C@H](C)c1c(Cl)cncc1Cl | 1 to 50 nM

---

Molecular target: FGFR4 (Homo sapiens)
Construct: made in house; host or cells: E. coli (BL21-derived), T7 phage
Sequence (P22455 22-802): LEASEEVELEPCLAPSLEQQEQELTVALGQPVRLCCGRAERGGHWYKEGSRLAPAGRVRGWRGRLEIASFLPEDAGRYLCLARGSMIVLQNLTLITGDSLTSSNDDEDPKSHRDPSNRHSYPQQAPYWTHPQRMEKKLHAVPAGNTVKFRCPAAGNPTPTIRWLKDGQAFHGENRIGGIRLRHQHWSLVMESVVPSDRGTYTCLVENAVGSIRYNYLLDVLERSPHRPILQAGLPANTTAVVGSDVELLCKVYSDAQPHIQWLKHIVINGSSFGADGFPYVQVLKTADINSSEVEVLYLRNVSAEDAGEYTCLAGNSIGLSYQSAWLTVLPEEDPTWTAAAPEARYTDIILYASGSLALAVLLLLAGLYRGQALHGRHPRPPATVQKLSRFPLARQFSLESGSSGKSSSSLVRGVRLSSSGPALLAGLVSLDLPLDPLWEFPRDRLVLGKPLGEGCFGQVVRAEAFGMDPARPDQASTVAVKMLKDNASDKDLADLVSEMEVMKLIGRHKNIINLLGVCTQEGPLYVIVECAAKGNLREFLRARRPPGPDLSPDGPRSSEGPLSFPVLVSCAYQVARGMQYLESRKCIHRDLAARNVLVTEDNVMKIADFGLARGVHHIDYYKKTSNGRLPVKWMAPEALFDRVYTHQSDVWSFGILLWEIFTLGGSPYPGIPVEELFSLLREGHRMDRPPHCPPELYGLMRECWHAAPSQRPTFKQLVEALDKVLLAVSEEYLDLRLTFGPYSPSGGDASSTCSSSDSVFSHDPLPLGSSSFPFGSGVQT
Experiment: Kinase binding assay (kinase-tagged T7 phage, affinity beads, qPCR), Kd
Conditions: read-out: FGFR4 (Kd nM)
This section presents compounds with their documented Kd values.

compound_structure_string | Kd
C[C@@H](Oc1ccc2[nH]nc(-c3ccc(N4C[C@@H](CS(C)(=O)=O)[C@@H]4C)nc3)c2c1)c1c(Cl)cncc1Cl | 1 to 50 nM
C[C@@H](Oc1ccc2[nH]nc(-c3cnc(N4CC(C)(N5CCOCC5)C4)c(F)c3)c2c1F)c1c(Cl)cncc1Cl | 50 to 300 nM
C[C@@H](Oc1ccc2[nH]nc(-c3ccc(N4CC(C)(NCC5CC5)C4)nc3)c2c1)c1c(Cl)cncc1Cl | 1 to 50 nM
COc1cc2[nH]nc(-c3cnc(N4CC(C)(N5C[C@H]6C[C@@H]5CO6)C4)c(C#N)c3)c2cc1O[C@H](C)c1c(Cl)cncc1Cl | 1 to 50 nM
C[C@@H](Oc1cc2c(-c3cnc(N4CC(C)(N5CCC5)C4)c(F)c3)n[nH]c2cc1F)c1c(Cl)cncc1Cl | 1 to 50 nM
C[C@@H](Oc1ccc2[nH]nc(-c3cnc(N4CC(C)(N5CC6CC(C5)O6)C4)c(F)c3)c2c1)c1c(Cl)cncc1Cl | 1 to 50 nM
